experiment: qHTS of pediatric cancer cell lines to identify multiple opportunities for drug repurposing: Confirmatory screen for SJ-GBM2 cells (AID 1347116); details: SJ-GBM2 glioblastoma cells, viability; series mostly up to 45.9 µM;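 note: potency is the fitted concentration of half-maximal effect; 48 hour compound exposure; nearly all actives have a fitted effect of over 60% in size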
Results filed as inconclusive are left out. The source made the active and inactive calls. Calls come from the whole dose curve; as a rule, active = well fitted cell-killing curve with a large enough effect; inconclusive = small, poorly fitted or top-dose-only effect, or effect the other way; inactive = no such curve, though single readings can be large or run the other way.
So I've got a bunch of compounds here, and I need their Potency values.

Ask | GET /values?readout=Potency&item= CC(C)[C@H](C(=O)Nc1ccc(C(=O)NO)cc1)c1ccccc1
Reply | 1470 nM (active)

Ask | Query CCC1=C[C@@H]2CN(C1)Cc1c([nH]c3ccccc13)[C@@](C(=O)OC)(c1cc3c(cc1OC)N(C)[C@@H]1[C@@](O)(C(=O)OC)[C@H](OC(C)=O)[C@]4(CC)C=CCN5CC[C@]31[C@@H]54)C2 next
Reply | 5220 nM (active)

Ask | Also check O=C(C=Cc1cccc(S(=O)(=O)Nc2ccccc2)c1)NO
Reply | 2140 nM (active)
